Data provenance is patent US20240050574A1.

# test.name: LNP size and polydispersity index by Dynamic Light Scattering (Malvern Zetasizer)
# Assay type: physicochemical
# study.conditions: Table 3; LNP ionizable lipid/phospholipid/cholesterol/DMG-PEG2000 about 50/10/38.5/1.5; DOPE, except MC-3 with DSPC; eGFP mRNA
result.type: PDI
Please respond with just the number, no unit label.

Here is how some compounds turned out for PDI.
[[record]]
compound = "CCCCCCCC/C=C\\CCCCCCCC(=O)OCC(CNC(=O)OCCSSCCOC(=O)NCCCN1CCCCC1CC)OC(=O)CCCCCCC/C=C\\CCCCCCCC (stereo not drawn)"
recorded_value = 0.311

[[record]]
compound = "CCCCCCCC/C=C\\CCCCCCCC(=O)OCC(CNC(=O)OCCSSCCOC(=O)NCCN1CCCCCC1)OC(=O)CCCCCCC/C=C\\CCCCCCCC (stereo not drawn)"
recorded_value = 0.21


Prompt: Returns the measured PDI for the input compound. Input: CCCCCCCCCCCCCCCCCCN(CCCCCCCCCCCCCCCCCC)C(=O)OCCSSCCOC(=O)NCCN1CCCCCC1
Completion: 0.158
